- System: AR mRNA
- EXPERIMENTAL PROTOCOL: Antisense inhibition of human AR in HuVEC cells, single concentration (electroporation, qRT-PCR RTS3559)
- Type: cell-based
- ASSAY CONDITIONS: 500 nM ASO, electroporation, ~24 h, Table 1
Oligonucleotides are written 5' to 3', each unit as a sugar letter and its base; * is a phosphorothioate linkage, no mark a phosphodiester; rarer units and linkages stand in square brackets, end groups in braces. Plain capitals give the bases only. k = constrained ethyl (cEt); [5mC] = 5-methylcytosine; d = 2'-deoxy (DNA)
OUTCOME MEASURE: % inhibition

# SUBSTANCE, ASSAYED TARGET, RESULT
measured = [
    ("549347 (k[5mC]*kT*kT*d[5mC]*dG*d[5mC]*dG*d[5mC]*dA*d[5mC]*dG*d[5mC]*dT*k[5mC]*kT*kG; antisense) [compound 549347]", "AR mRNA", "84%"),
    ("549334 (k[5mC]*kA*k[5mC]*d[5mC]*dT*dG*d[5mC]*dG*dG*dG*dA*dA*dG*k[5mC]*kT*k[5mC]; antisense) [compound 549334]", "AR mRNA", "83%"),
    ("549374 (kG*k[5mC]*kG*d[5mC]*dT*dG*d[5mC]*d[5mC]*dG*dT*dA*dG*dT*k[5mC]*k[5mC]*kA; antisense) [compound 549374]", "AR mRNA", "93%"),
    ("549372 (kA*kA*kG*dT*dT*dG*dT*dA*dG*dT*dA*dG*dT*k[5mC]*kG*k[5mC]) [compound 549372]", "AR mRNA", "92%"),
    ("549388 (kT*k[5mC]*k[5mC]*d[5mC]*dT*dT*d[5mC]*dA*dG*d[5mC]*dG*dG*d[5mC]*kT*k[5mC]*kT; antisense) [compound 549388]", "AR mRNA", "88%"),
    ("549360 (kG*kG*kT*d[5mC]*dG*dA*dA*dG*dT*dG*d[5mC]*d[5mC]*d[5mC]*k[5mC]*k[5mC]*kT; antisense) [compound 549360]", "AR mRNA", "89%"),
    ("549379 (kG*k[5mC]*kT*d[5mC]*d[5mC]*d[5mC]*dG*d[5mC]*d[5mC]*dT*d[5mC]*dG*d[5mC]*k[5mC]*kG*k[5mC]; antisense) [compound 549379]", "AR mRNA", "86%"),
    ("549383 (k[5mC]*k[5mC]*kA*dA*dA*d[5mC]*dG*d[5mC]*dA*dT*dG*dT*d[5mC]*k[5mC]*k[5mC]*k[5mC]; antisense) [compound 549383]", "AR mRNA", "88%"),
    ("549381 (kG*k[5mC]*k[5mC]*dG*d[5mC]*d[5mC]*dA*dG*dG*dG*dT*dA*d[5mC]*k[5mC]*kA*k[5mC]; antisense) [compound 549381]", "AR mRNA", "89%"),
]

The measured values listed here are drawn from patent USRE48461E1.
